TEST TARGET: T1, recombinant human CD3 (human CD3eg linker) (Homo sapiens, UniProt P07766+P09693)
T1 construct: made in house; host or cells: FreeStyle293F
T1 sequence (P07766+P09693 fused): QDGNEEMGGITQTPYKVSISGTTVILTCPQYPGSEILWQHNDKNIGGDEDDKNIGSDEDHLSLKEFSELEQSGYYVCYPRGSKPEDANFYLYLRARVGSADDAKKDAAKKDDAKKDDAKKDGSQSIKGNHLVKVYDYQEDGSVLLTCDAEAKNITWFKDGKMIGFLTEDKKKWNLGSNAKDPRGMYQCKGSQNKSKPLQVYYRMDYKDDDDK
EXPERIMENTAL PROTOCOL: Biacore T200 SPR affinity of Dual-Fab antibodies to human CD3
Type: binding
STATED CONDITIONS: 25 degrees C, pH 7.4
Documented CD3 Kon across a set of molecules
Give just the numeric value; M⁻¹ s⁻¹ need not be written.

Q: Query: CD3 Kon; subject: H2591L0581: affinity matured Dual-Fab variant, VH SEQ ID NO 101, VL SEQ ID NO 143 (antibody, V domains shown) VH: QVQLVESGGGLVQPGRSLRLSCAASGFKFSNVWFHWVRQAPGKGLEWVAQIKDYYNAYAGYYHPSVKGRFTISRDDSKNSIYLQMNSLKTEDTAVYYCHYVHYAAASTLLPAEGVDAWGQGTTVTVSS VL: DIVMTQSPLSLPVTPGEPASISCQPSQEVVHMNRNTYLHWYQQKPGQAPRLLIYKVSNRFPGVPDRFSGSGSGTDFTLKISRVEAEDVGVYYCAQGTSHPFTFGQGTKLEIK
A: 102000

// next entry
Q: Query: CD3 Kon; subject: H1673L0581: affinity matured Dual-Fab variant, VH SEQ ID NO 100, VL SEQ ID NO 143 (antibody, V domains shown) VH: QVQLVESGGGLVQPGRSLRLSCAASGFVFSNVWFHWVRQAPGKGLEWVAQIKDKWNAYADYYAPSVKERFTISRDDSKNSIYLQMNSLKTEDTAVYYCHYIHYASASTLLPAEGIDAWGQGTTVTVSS VL: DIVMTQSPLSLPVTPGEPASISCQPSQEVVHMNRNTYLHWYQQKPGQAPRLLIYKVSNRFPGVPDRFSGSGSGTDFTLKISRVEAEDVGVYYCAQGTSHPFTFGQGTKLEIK
A: 79600

Every entry's value here was drawn from patent US20240425589A1.
